test system: LPS-induced IL-8 release in d-U937 cells; experiment: LPS-induced IL-8 release in d-U937 cells; format: cell-based; details: Homo sapiens, dU937, read-out: LPS Induced Release of Cytokine in d-937 Cells IL-8 IC50
measuredAttribute: pIC50
Note: pIC50 values are expressed as the negative base-10 logarithm of concentration in M.

Below, each entry is followed by its recorded pIC50 result.
| smilesInput | targetOrTestSystem | pIC50 |
| --- | --- | --- |
| Cc1cc(Nc2nccc(Oc3ccc(NC(=O)Nc4cc(C(C)(C)C)nn4-c4ccc(=O)n(CCN5CCOCC5)c4)c4ccccc34)n2)cc2cn[nH]c12 | LPS-induced IL-8 release in d-U937 cells | 7.54 |
| COc1ccc(-n2nc(C(C)(C)C)cc2NC(=O)Nc2ccc(Oc3ccnc(Nc4ccc5[nH]nc(C(=O)N(C)C)c5c4)n3)c3ccccc23)cc1 | LPS-induced IL-8 release in d-U937 cells | 8.48 |
| Cc1n[nH]c2ccc(Nc3nccc(Oc4ccc(NC(=O)Nc5cc(C(C)(C)C)nn5-c5ccc(OCCN6CCOCC6)cc5)c5ccccc45)n3)cc12 | LPS-induced IL-8 release in d-U937 cells | 8.77 |
| CC(C)(C)c1cc(NC(=O)Nc2ccc(Oc3ccnc(Nc4ccc5[nH]ccc5c4)n3)c3ccccc23)n(-c2ccc(O)cc2)n1 | LPS-induced IL-8 release in d-U937 cells | 8.23 |
| CC(C)(C)c1cc(NC(=O)Nc2ccc(Oc3ccnc(Nc4ccc5scnc5c4)n3)c3ccccc23)n(-c2ccc(OCCN3CCOCC3)cc2)n1 | LPS-induced IL-8 release in d-U937 cells | 7.91 |

Inquiry: Reported pIC50, compound Cc1ccc(-n2nc(C(C)(C)C)cc2NC(=O)Nc2ccc(Oc3ccnc(Nc4ccc5[nH]ncc5c4)n3)c3ccccc23)cc1 : ____
Reply text: 8.82

###

tested on: LPS-induced airways neutrophilia in mice; assay: LPS-induced neutrophil accumulation in mice; assay type: in vivo; conditions: Test Substance at 0.2 mg/mL, intra tracheal, dosed 8 hr pre-LPS challenge
measuredAttribute: % Inhibition of neutrophil accumulation in BAL (%)
Your answer is read as %, so omit the unit and give the number.

| compound | targetOrTestSystem | recordedValue |
| --- | --- | --- |
| COCC(=O)Nc1cc(Oc2ccc(NC(=O)Nc3cc(C(C)(C)C)nn3-c3ccc(C)cc3)c3ccccc23)ccn1 [Reference Compound, reference compound] | LPS-induced airways neutrophilia in mice | 60 |
| Cc1cc(Nc2nccc(Oc3ccc(NC(=O)Nc4cc(C(C)(C)C)nn4-c4cccc(OCCN5CCOCC5)c4)c4ccccc34)n2)cc2cn[nH]c12 | LPS-induced airways neutrophilia in mice | 38 |

Lab note: next compound to report on.
Inquiry: Query: % Inhibition of neutrophil accumulation in BAL; subject: Cc1ccc(-n2nc(C(C)(C)C)cc2NC(=O)Nc2ccc(Oc3ccnc(Nc4ccc5[nH]ncc5c4)n3)c3ccccc23)cc1
Reply text: 57

###

System: GSK3α (Homo sapiens (Human)) | Read-out: IC50
Sequence (P49840 whole entry): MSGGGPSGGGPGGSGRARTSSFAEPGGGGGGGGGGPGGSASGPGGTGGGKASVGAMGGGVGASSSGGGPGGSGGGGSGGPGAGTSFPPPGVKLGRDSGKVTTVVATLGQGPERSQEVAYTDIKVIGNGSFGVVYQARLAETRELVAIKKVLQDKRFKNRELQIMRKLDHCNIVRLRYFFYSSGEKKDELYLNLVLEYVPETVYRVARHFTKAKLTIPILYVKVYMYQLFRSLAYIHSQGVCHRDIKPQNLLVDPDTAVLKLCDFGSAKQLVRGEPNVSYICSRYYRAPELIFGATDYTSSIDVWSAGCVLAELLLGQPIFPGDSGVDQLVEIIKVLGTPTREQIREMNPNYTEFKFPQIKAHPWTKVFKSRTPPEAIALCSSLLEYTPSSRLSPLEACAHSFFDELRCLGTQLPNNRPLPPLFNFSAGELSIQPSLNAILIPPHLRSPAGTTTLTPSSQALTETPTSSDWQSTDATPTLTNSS

Consider the reported IC50 for these molecules:
| smilesInput | IC50 |
| --- | --- |
| Cc1cc(Nc2nccc(Oc3ccc(NC(=O)Nc4cc(C(C)(C)C)nn4-c4cccc(OCCN5CCOCC5)c4)c4ccccc34)n2)cc2cn[nH]c12 | > 13300 nM |
| Cc1ccc(-n2nc(C(C)(C)C)cc2NC(=O)Nc2ccc(Oc3ccnc(Nc4cc(Cl)c5[nH]ncc5c4)n3)c3ccccc23)cc1 | > 1520 nM |
| COCCOc1cccc(-n2nc(C(C)(C)C)cc2NC(=O)Nc2ccc(Oc3ccnc(Nc4cc(C)c5[nH]ncc5c4)c3)c3ccccc23)c1 | 4700 nM |
| Cc1ccc(-n2nc(C(C)(C)C)cc2NC(=O)Nc2ccc(Oc3ccnc(Nc4ccc5c(cnn5C)c4)n3)c3ccccc23)cc1 | > 15700 nM |
| Cc1n[nH]c2ccc(Nc3nccc(Oc4ccc(NC(=O)Nc5cc(C(C)(C)C)nn5-c5ccc(OCCN6CCOCC6)cc5)c5ccccc45)n3)cc12 | 2290 nM |
| CC(C)(C)c1cc(NC(=O)Nc2ccc(Oc3ccnc(Nc4ccc5[nH]ncc5c4)n3)c3ccccc23)n(-c2ccc(O)cc2)n1 | > 1600 nM |
| CC(C)(C)c1cc(NC(=O)Nc2ccc(Oc3ccnc(Nc4ccc5[nH]ncc5c4)n3)c3ccccc23)n(-c2ccc(OCCN3CCOCC3)nc2)n1 | 1420 nM |
| Cc1ccc(-n2nc(C(C)(C)C)cc2NC(=O)Nc2ccc(Oc3ccnc(Nc4ccc5[nH]ncc5c4)n3)c3ccccc23)cc1 | > 16000 nM |

Inquiry: If you can, please state the reported IC50 value of COc1ccc(-n2nc(C(C)(C)C)cc2NC(=O)Nc2ccc(Oc3ccnc(Nc4ccc5[nH]ccc5c4)n3)c3ccccc23)cc1 .
Reply text: > 1560 nM

Inquiry: And CC(C)(C)c1cc(NC(=O)Nc2ccc(Oc3ccnc(Nc4ccc5[nH]ncc5c4)n3)c3ccccc23)n(-c2cccc(CN3CCCC3=O)c2)n1 ?
Reply text: 1350 nM

Inquiry: Would you kindly repeat that for Cc1ccc(-n2nc(C(C)(C)C)cc2NC(=O)Nc2ccc(Oc3ccnc(Nc4ccc5c(c4)CC(=O)N5C)n3)c3ccccc23)cc1 ?
Reply text: 900 nM

Inquiry: Query CC(C)c1cc(NC(=O)Nc2ccc(Oc3cc(Nc4ccc5[nH]ncc5c4)ncn3)c3ccccc23)n(-c2ccc(=O)n(CCO)c2)n1 next
Reply text: 278 nM

Inquiry: Now consider CC(C)(C)c1cc(NC(=O)Nc2ccc(Oc3ccnc(Nc4ccc5[nH]ncc5c4)c3)c3ccccc23)n(-c2ccc(OCCN3CCOCC3)cc2)n1 .
Reply text: 3040 nM

###

Listed here: items and their measured IC50.
target: p38 MAPKα (Homo sapiens (Human))
Sequence (Q16539 whole entry): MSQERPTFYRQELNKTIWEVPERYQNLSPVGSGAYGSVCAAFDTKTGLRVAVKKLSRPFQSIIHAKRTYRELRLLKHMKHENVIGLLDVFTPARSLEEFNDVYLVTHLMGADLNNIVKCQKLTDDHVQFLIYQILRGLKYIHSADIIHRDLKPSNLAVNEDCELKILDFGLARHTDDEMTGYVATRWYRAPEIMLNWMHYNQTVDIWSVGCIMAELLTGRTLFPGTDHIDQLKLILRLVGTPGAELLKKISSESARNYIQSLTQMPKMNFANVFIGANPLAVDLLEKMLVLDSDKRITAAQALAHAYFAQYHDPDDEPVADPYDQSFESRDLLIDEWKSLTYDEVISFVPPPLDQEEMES
Quick reminder: number only, in nM, skip the unit.

| molecule | IC50, nM |
| --- | --- |
| Cc1ccc(-n2nc(C(C)(C)C)cc2NC(=O)Nc2ccc(Oc3ccnc(Nc4ccc5c(c4)NC(=O)C5)n3)c3ccccc23)cc1 [Example 2] | 93 |

Inquiry: So what does the record say about IC50 for CC(C)(C)c1cc(NC(=O)Nc2ccc(Oc3ccnc(Nc4ccc5scnc5c4)n3)c3ccccc23)n(-c2ccc(OCCN3CCOCC3)cc2)n1 [Example 79] ?
Reply text: 149

Inquiry: // repeat for Cc1ccc(-n2nc(C(C)(C)C)cc2NC(=O)Nc2ccc(Oc3ccnc(Nc4ccc5c(c4)ncn5C)n3)c3ccccc23)cc1 [Example 4] and report
Reply text: 19

###

Examples of molecules with documented pIC50 follow.
biological target: UniProtKB P12931
Sequence (P12931 whole entry, looked up): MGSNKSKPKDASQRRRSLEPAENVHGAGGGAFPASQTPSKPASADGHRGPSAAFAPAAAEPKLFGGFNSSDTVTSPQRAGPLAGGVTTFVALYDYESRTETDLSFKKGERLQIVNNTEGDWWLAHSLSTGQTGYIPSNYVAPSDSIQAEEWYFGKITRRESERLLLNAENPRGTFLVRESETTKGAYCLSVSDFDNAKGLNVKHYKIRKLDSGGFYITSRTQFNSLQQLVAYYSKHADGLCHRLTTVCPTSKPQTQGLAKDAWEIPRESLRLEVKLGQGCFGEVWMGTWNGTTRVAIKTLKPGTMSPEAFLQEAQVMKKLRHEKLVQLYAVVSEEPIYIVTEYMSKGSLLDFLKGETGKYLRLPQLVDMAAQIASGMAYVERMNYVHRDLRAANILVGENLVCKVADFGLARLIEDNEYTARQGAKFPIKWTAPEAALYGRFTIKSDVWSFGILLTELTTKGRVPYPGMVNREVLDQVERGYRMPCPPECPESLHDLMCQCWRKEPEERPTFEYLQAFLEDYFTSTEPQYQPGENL
When answering, recall that pIC50 equals minus log10 of the concentration in mol/L, and write that number alone.

Worked set:
| molecule | recordedValue |
| --- | --- |
| Cc1ccc(-n2nc(C(C)(C)C)cc2NC(=O)Nc2ccc(Oc3ccnc(Nc4ccc5c(c4)NC(=O)C5)n3)c3ccccc23)cc1 [Example 2] | 8.40 |
| CC(C)(C)c1cc(NC(=O)Nc2ccc(Oc3ccnc(Nc4ccc5c(c4)CCC5)n3)c3ccccc23)n(-c2ccc(OCCN3CCOCC3)cc2)n1 [Example 59] | 7.64 |

Continue with the next molecule.
Inquiry: Any idea what pIC50 was measured for Cc1ccc(-n2nc(C(C)(C)C)cc2NC(=O)Nc2ccc(Oc3ccnc(Nc4ccc5[nH]cnc5c4)n3)c3ccccc23)cc1 [Example 30] ?
Reply text: 7.77

###

List of pIC50 tested on GSK3α (Homo sapiens (Human)).
Field pIC50 (float): negative decimal logarithm of the concentration in molar.

Here is how some molecules turned out for pIC50.
| molecule | pIC50 |
| --- | --- |
| Cc1ccc(-n2nc(C(C)(C)C)cc2NC(=O)Nc2ccc(Oc3ccnc(Nc4ccc5[nH]nc(C(=O)NCCN6CCOCC6)c5c4)n3)c3ccccc23)cc1 [Example 3] | 5.63 |
| CC(C)c1cc(NC(=O)Nc2ccc(Oc3ccnc(Nc4ccc5[nH]ncc5c4)c3)c3ccccc23)n(-c2cccc(OCCN3CCOCC3)c2)n1 [Example 51] | 5.31 |

Inquiry: Look at this molecule and give its reported pIC50. COc1ccc(-n2nc(C(C)(C)C)cc2NC(=O)Nc2ccc(Oc3ccnc(Nc4ccc5[nH]nc(OCCN6CCOCC6)c5c4)n3)c3ccccc23)cc1 [Example 45]
Reply text: 6.39

Inquiry: Then what about the molecule CC(C)c1cc(NC(=O)Nc2ccc(Oc3ccnc(Nc4ccc5[nH]ncc5c4)n3)c3ccccc23)n(-c2cccc(OCCN3CCOCC3)c2)n1 [Example 53] ?
Reply text: 4.95

Inquiry: Another molecule: Cc1ccc(-n2nc(C(C)(C)C)cc2NC(=O)Nc2ccc(Oc3ccnc(Nc4ccc5[nH]nnc5c4)n3)c3ccccc23)cc1 [Example 36]
Reply text: 5.68

Inquiry: Input Cc1cc(Nc2nccc(Oc3ccc(NC(=O)Nc4cc(C(C)(C)C)nn4-c4ccc(=O)n(CCO)c4)c4ccccc34)n2)cc2cn[nH]c12 [Example 87]
Reply text: 5.96

Inquiry: How about Cc1ccc(-n2nc(C(C)(C)C)cc2NC(=O)Nc2ccc(Oc3ccnc(Nc4ccc5c(c4)ncn5C)n3)c3ccccc23)cc1 [Example 4] ?
Reply text: 5.86

Inquiry: Also Cc1ccc(-n2nc(C(C)(C)C)cc2NC(=O)Nc2ccc(Oc3ccnc(Nc4ccc5c(c4)OCO5)n3)c3ccccc23)cc1 [Example 33] , if possible.
Reply text: 5.29

Inquiry: Input CC(C)c1cc(NC(=O)Nc2ccc(Oc3ccnc(Nc4ccc5c(c4)NC(=O)C5)n3)c3ccccc23)n(-c2ccc(OCCN3CCOCC3)cc2)n1 [Example 61]
Reply text: 5.81
